Hello, the source for this data is ChEMBL document CHEMBL1687901, in case you need it.

- Test system: Streptococcus pneumoniae
- method: Antibacterial activity against Streptococcus pneumoniae ATCC 49619 by CLSI M07-A8 method
- Format: functional
Readings of MIC for the listed molecules
Report only the number, with the unit µg/mL understood.

Examples with answers:
COc1ncc(O)c2c1C[C@H]1C[C@H]3[C@H](N(C)C)C(O)=C(C(N)=O)C(=O)[C@@]3(O)C(O)=C1C2=O.Cl.Cl ... 0.063
CN(C)[C@@H]1C(O)=C(C(N)=O)C(=O)[C@@]2(O)C(O)=C3C(=O)c4c(O)cccc4[C@@](C)(O)[C@H]3C[C@@H]12 ... 0.25
CN(C)CCCNc1nc(Cl)c2c(c1O)C(=O)C1=C(O)[C@]3(O)C(=O)C(C(N)=O)=C(O)[C@@H](N(C)C)[C@@H]3C[C@@H]1C2.Cl ... 1
CC(C)OCCNc1nc(Cl)c2c(c1O)C(=O)C1=C(O)[C@]3(O)C(=O)C(C(N)=O)=C(O)[C@@H](N(C)C)[C@@H]3C[C@@H]1C2.Cl.Cl.Cl ... 0.031

Shifting focus to the molecule that follows.
The molecule listed as CN(C)[C@@H]1C(O)=C(C(N)=O)C(=O)[C@@]2(O)C(O)=C3C(=O)c4c(O)cncc4C[C@H]3C[C@@H]12.Cl.Cl has a reported MIC of 0.25

====

- Tested on: Klebsiella pneumoniae
- method: Antibacterial activity against Klebsiella pneumoniae ATCC 13883 by CLSI M07-A8 method
- Type: functional
readout-kind: MIC (mg/L)
Write down the numeric answer in mg/L and omit the unit.

Completed entries (count: 3):
CCCNc1nc(F)c2c(c1O)C(=O)C1=C(O)[C@]3(O)C(=O)C(C(N)=O)=C(O)[C@@H](N(C)C)[C@@H]3C[C@@H]1C2.Cl.Cl ... 8
CC(C)Nc1nc(Cl)c2c(c1O)C(=O)C1=C(O)[C@]3(O)C(=O)C(C(N)=O)=C(O)[C@@H](N(C)C)[C@@H]3C[C@@H]1C2.Cl.Cl.Cl ... 32
CCNc1nc(Cl)c2c(c1O)C(=O)C1=C(O)[C@]3(O)C(=O)C(C(N)=O)=C(O)[C@@H](N(C)C)[C@@H]3C[C@@H]1C2.Cl.Cl.Cl ... 2

For CC(C)OCCNc1nc(Cl)c2c(c1O)C(=O)C1=C(O)[C@]3(O)C(=O)C(C(N)=O)=C(O)[C@@H](N(C)C)[C@@H]3C[C@@H]1C2.Cl.Cl.Cl the compound record lists MIC as 16

# MIC (compound: CCCc1nc(Cl)c2c(c1O)C(=O)C1=C(O)[C@]3(O)C(=O)C(C(N)=O)=C(O)[C@@H](N(C)C)[C@@H]3C[C@@H]1C2.Cl ) is 32

====

- method: Half life in Sprague-Dawley rat at 1 mg/kg, iv and 10 mg/kg, po
- Assay type: ADME, organism-based
- study-conditions: in vivo
Catalogue of half-life values

// worked examples, half-life included
CN(C)c1cc(NC(=O)CNC(C)(C)C)c(O)c2c1C[C@H]1C[C@H]3[C@H](N(C)C)C(O)=C(C(N)=O)C(=O)[C@@]3(O)C(O)=C1C2=O [TIGECYCLINE] ... 4.6 h
CN(C)c1ncc(O)c2c1C[C@H]1C[C@H]3[C@H](N(C)C)C(O)=C(C(N)=O)C(=O)[C@@]3(O)C(O)=C1C2=O.Cl.Cl ... 3.1 h

Next item in the queue.
Lab note: measured half-life of CN(C)CC(C)(C)CNc1nc(Cl)c2c(c1O)C(=O)C1=C(O)[C@]3(O)C(=O)C(C(N)=O)=C(O)[C@@H](N(C)C)[C@@H]3C[C@@H]1C2.Cl was 4.3 h

====

The following molecules are shown together with reported MIC90 values.
- System: Escherichia coli
- method: Antibacterial activity against Escherichia coli by CLSI M07-A8 method
- Assay type: functional
Report as a plain number; the unit µg/mL is understood.

CN(C)c1cc(NC(=O)CNC(C)(C)C)c(O)c2c1C[C@H]1C[C@H]3[C@H](N(C)C)C(O)=C(C(N)=O)C(=O)[C@@]3(O)C(O)=C1C2=O ... 0.5

Now examine the next entry.
Looking up CN(C)CC(C)(C)CNc1nc(Cl)c2c(c1O)C(=O)C1=C(O)[C@]3(O)C(=O)C(C(N)=O)=C(O)[C@@H](N(C)C)[C@@H]3C[C@@H]1C2.Cl , I found its MIC90 recorded as 4

====

- Tested on: Staphylococcus aureus
- method: Antibacterial activity against tetracycline-resistant Staphylococcus aureus isolate 158 harboring tet(K) gene by CLSI M07-A8 method
- Type: functional
readout-kind: log10 of MIC (log10 of the value in µg/mL)
Please interpret these as log10 of MIC where MIC is in µg/mL.

CN(C)[C@@H]1C(O)=C(C(N)=O)C(=O)[C@@]2(O)C(O)=C3C(=O)c4c(O)c(-c5ccccc5)nc(Cl)c4C[C@H]3C[C@@H]12.Cl ... 0.00
CN(C)c1cc(NC(=O)CNC(C)(C)C)c(O)c2c1C[C@H]1C[C@H]3[C@H](N(C)C)C(O)=C(C(N)=O)C(=O)[C@@]3(O)C(O)=C1C2=O [TIGECYCLINE] ... -1.20
CN(C)[C@@H]1C(O)=C(C(N)=O)C(=O)[C@@]2(O)C(O)=C3C(=O)c4c(cnc(-c5ccccc5)c4O)C[C@H]3C[C@@H]12.Cl.Cl ... 1.20

Lab book: log10 of MIC of CCNc1nc(Cl)c2c(c1O)C(=O)C1=C(O)[C@]3(O)C(=O)C(C(N)=O)=C(O)[C@@H](N(C)C)[C@@H]3C[C@@H]1C2.Cl.Cl.Cl noted as -0.30

// sample CN(C)CCNc1nc(Cl)c2c(c1O)C(=O)C1=C(O)[C@]3(O)C(=O)C(C(N)=O)=C(O)[C@@H](N(C)C)[C@@H]3C[C@@H]1C2.Cl , its log10 of MIC was 0.00

# log10 of MIC (molecule: CN(C)[C@@H]1C(O)=C(C(N)=O)C(=O)[C@@]2(O)C(O)=C3C(=O)c4c(O)c(N)nc(F)c4C[C@H]3C[C@@H]12.Cl.Cl ) is 0.90

Please fill in: log10 of MIC reported for CCCc1nc(Cl)c2c(c1O)C(=O)C1=C(O)[C@]3(O)C(=O)C(C(N)=O)=C(O)[C@@H](N(C)C)[C@@H]3C[C@@H]1C2.Cl = 0.60

response.value for Cc1nc(Cl)c2c(c1O)C(=O)C1=C(O)[C@]3(O)C(=O)C(C(N)=O)=C(O)[C@@H](N(C)C)[C@@H]3C[C@@H]1C2.Cl (field: log10 of MIC) = 1.20

The reported value for CNc1nc(Cl)c2c(c1O)C(=O)C1=C(O)[C@]3(O)C(=O)C(C(N)=O)=C(O)[C@@H](N(C)C)[C@@H]3C[C@@H]1C2.Cl.Cl.Cl in terms of log10 of MIC is 0.30

molecule COc1ncc(O)c2c1C[C@H]1C[C@H]3[C@H](N(C)C)C(O)=C(C(N)=O)C(=O)[C@@]3(O)C(O)=C1C2=O.Cl.Cl , log10 of MIC observed: 0.60

====

- System: Streptococcus pneumoniae
- method: Antibacterial activity against Streptococcus pneumoniae ATCC 49619 by CLSI M07-A8 method
- Format: functional
readout-kind: MIC (µg/mL)
Output spec: scalar in µg/mL, unitless text.

CN(C)c1cc(CNCC(C)(C)C)c(O)c2c1C[C@H]1C[C@H]3[C@H](N(C)C)C(O)=C(C(N)=O)C(=O)[C@@]3(O)C(O)=C1C2=O [OMADACYCLINE] ... 0.031
CN(C)[C@@H]1C(O)=C(C(N)=O)C(=O)[C@@]2(O)C(O)=C3C(=O)c4c(O)c(NC(=O)CNC(C)(C)C)nc(F)c4C[C@H]3C[C@@H]12.Cl.Cl ... 2
CC(C)CCNc1nc(Cl)c2c(c1O)C(=O)C1=C(O)[C@]3(O)C(=O)C(C(N)=O)=C(O)[C@@H](N(C)C)[C@@H]3C[C@@H]1C2.Cl.Cl.Cl ... 8

Would you kindly look at the next entry?
Form: compound = CN(C)[C@@H]1C(O)=C(C(N)=O)C(=O)[C@@]2(O)C(O)=C3C(=O)c4c(cnc(-c5ccccc5)c4O)C[C@H]3C[C@@H]12.Cl.Cl ; MIC = 2

====

- System: Escherichia coli
- method: Inhibition of protein synthesis in Escherichia coli S30 extract by coupled transcription/translation assay
- Type: functional
readout-kind: IC50
Entry format: amount then unit.

// below: answered molecules
CN(C)CC(C)(C)CNc1nc(Cl)c2c(c1O)C(=O)C1=C(O)[C@]3(O)C(=O)C(C(N)=O)=C(O)[C@@H](N(C)C)[C@@H]3C[C@@H]1C2.Cl ... 0.7 µg/mL
CN(C)[C@@H]1C(O)=C(C(N)=O)C(=O)[C@@]2(O)C(O)=C3C(=O)c4c(O)c(NC(=O)CNC(C)(C)C)nc(Cl)c4C[C@H]3C[C@@H]12.Cl.Cl.Cl ... 0.78 µg/mL

Turning now to a further molecule:
Sure, the documented IC50 for CN(C)CCCNc1nc(Cl)c2c(c1O)C(=O)C1=C(O)[C@]3(O)C(=O)C(C(N)=O)=C(O)[C@@H](N(C)C)[C@@H]3C[C@@H]1C2.Cl is 0.58 µg/mL
